target: UniProt P04626; assay: Inhibition of ErbB2 by SPA assay
Sequence (P04626 whole entry): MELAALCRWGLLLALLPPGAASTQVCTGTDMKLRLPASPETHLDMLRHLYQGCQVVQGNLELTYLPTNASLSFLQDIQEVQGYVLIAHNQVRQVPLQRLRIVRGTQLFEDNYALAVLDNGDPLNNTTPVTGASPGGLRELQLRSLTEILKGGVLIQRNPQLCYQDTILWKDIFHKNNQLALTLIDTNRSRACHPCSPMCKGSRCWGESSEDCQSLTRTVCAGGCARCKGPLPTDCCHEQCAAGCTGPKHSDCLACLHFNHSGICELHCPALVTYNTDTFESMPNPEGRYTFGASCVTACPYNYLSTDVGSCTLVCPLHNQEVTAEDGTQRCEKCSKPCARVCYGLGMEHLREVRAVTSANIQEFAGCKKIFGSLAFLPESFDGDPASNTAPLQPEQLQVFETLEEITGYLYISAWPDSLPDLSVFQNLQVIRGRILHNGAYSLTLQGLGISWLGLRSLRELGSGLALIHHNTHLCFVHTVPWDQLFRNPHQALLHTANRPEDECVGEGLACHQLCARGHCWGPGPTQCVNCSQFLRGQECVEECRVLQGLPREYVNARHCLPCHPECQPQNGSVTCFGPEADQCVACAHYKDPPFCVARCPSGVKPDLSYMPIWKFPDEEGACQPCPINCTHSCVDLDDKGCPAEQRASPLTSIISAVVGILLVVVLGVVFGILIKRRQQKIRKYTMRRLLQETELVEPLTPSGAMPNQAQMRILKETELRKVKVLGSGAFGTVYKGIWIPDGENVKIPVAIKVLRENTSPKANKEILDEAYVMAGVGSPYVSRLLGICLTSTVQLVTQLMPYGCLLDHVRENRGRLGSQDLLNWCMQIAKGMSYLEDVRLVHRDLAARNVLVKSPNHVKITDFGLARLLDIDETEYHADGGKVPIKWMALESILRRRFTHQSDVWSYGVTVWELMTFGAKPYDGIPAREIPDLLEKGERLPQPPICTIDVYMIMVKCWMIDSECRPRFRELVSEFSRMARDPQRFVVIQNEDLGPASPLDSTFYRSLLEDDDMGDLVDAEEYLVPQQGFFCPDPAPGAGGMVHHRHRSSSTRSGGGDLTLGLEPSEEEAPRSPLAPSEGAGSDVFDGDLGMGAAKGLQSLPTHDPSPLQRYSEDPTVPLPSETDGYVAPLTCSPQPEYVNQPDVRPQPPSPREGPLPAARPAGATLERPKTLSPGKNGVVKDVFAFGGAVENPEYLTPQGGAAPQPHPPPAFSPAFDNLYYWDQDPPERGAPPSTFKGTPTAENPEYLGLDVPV
Listing of entries alongside the reported IC50.
Measured parameter: IC50 (nM)

Smi	Measured parameter	Readout number
O=C(O[C@H]1CN[C@H](C#Cc2cc3ncnc(Nc4ccc(OCc5ccccn5)c(Cl)c4)c3s2)C1)N1CCOCC1	IC50	30
O=C(O[C@H]1CN[C@H](C#Cc2cc3ncnc(Nc4ccc5c(ccn5CCc5ccccc5)c4)c3s2)C1)N1CCOCC1	IC50	2660
O=C(O[C@H]1CN[C@H](C#Cc2cc3ncnc(Nc4ccc5c(ccn5S(=O)(=O)c5ccsc5)c4)c3s2)C1)N1CCOCC1	IC50	120
O=C(O[C@H]1CN[C@H](C#Cc2cc3ncnc(Nc4ccc(Oc5ccccn5)c(Cl)c4)c3s2)C1)N1CCOCC1	IC50	60

====

Listing of entries alongside the reported fraction unbound.
assay: Protein binding in rat plasma by HPLC; type: ADME, cell-free; conditions: read-out: PPB (converted)

Compound	fraction unbound
O=C(O[C@H]1CN[C@H](C#Cc2cc3ncnc(Nc4ccc(OCc5cscn5)c(Cl)c4)c3s2)C1)N1CCOCC1	0.051
O=C(O[C@H]1CN[C@H](C#Cc2cc3ncnc(Nc4ccc5c(cnn5Cc5ccccc5)c4)c3s2)C1)N1CCOCC1	0.027
O=C(O[C@H]1CN[C@H](C#Cc2cc3ncnc(Nc4ccc(Oc5ccnc6ccc(F)cc56)c(Cl)c4)c3s2)C1)N1CCOCC1	0.03
O=C(O[C@H]1CN[C@H](C#Cc2cc3ncnc(Nc4ccc(Sc5cccc(F)c5)c(Cl)c4)c3s2)C1)N1CCOCC1	0.024
O=C(O[C@H]1CN[C@H](C#Cc2cc3ncnc(Nc4ccc5c(cnn5Cc5cccc(F)c5)c4)c3s2)C1)N1CCOCC1	0.05
O=C(O[C@H]1CN[C@H](C#Cc2cc3ncnc(Nc4ccc(Cc5ccccc5)cc4)c3s2)C1)N1CCOCC1	0.036
O=C(O[C@H]1CN[C@H](C#Cc2cc3ncnc(Nc4ccc(Oc5ccccn5)c(Cl)c4)c3s2)C1)N1CCOCC1	0.033
O=C(O[C@H]1CN[C@H](C#Cc2cc3ncnc(Nc4ccc(OCc5ccccn5)c(Cl)c4)c3s2)C1)N1CCOCC1	0.031
O=C(O[C@H]1CN[C@H](C#Cc2cc3ncnc(Nc4ccc(OCc5cccc(F)c5)c(Cl)c4)c3s2)C1)N1CCOCC1 [GW869810X]	0.02

====

biological target: UniProt:P00533
pIC50: −log10 of the molar value.
Threshold rule: pIC50 greater than or equal to 6 is TRUE; below that, FALSE.

Compound	Cat
O=C(O[C@H]1CN[C@H](C#Cc2cc3ncnc(Nc4ccc5c(c4)c(F)cn5Cc4ccccc4)c3s2)C1)N1CCOCC1	TRUE
O=C(O[C@H]1CN[C@H](C#Cc2cc3ncnc(Nc4ccc(OCc5cscn5)c(Cl)c4)c3s2)C1)N1CCOCC1	TRUE
O=C(O[C@H]1CN[C@H](C#Cc2cc3ncnc(Nc4ccc(OCc5cccc(F)c5)nc4)c3s2)C1)N1CCOCC1	FALSE
CC(c1cccc(F)c1)n1ncc2cc(Nc3ncnc4cc(C#C[C@@H]5C[C@@H](OC(=O)N6CCOCC6)CN5)sc34)ccc21 (stereo not given in full)	TRUE
O=C(O[C@H]1CN[C@H](C#Cc2cc3ncnc(Nc4ccc5c(cnn5Cc5ccccc5)c4)c3s2)C1)N1CCOCC1	TRUE
O=C(O[C@H]1CN[C@H](C#Cc2cc3ncnc(Nc4ccc(Oc5ccnc6ccc(F)cc56)c(Cl)c4)c3s2)C1)N1CCOCC1	TRUE
O=C(O[C@H]1CN[C@H](C#Cc2cc3ncnc(Nc4ccc5c(ccn5Cc5ccccc5)c4)c3s2)C1)N1CCOCC1	TRUE
O=C(O[C@H]1CN[C@H](C#Cc2cc3ncnc(Nc4ccc5c(cnn5Cc5cc(F)ccc5F)c4)c3s2)C1)N1CCOCC1	TRUE
O=C(O[C@H]1CN[C@H](C#Cc2cc3ncnc(Nc4ccc(Sc5cccc(F)c5)c(Cl)c4)c3s2)C1)N1CCOCC1	TRUE
Cc1cc(Oc2ccc(Nc3ncnc4cc(C#C[C@@H]5C[C@@H](OC(=O)N6CCOCC6)CN5)sc34)cc2Cl)no1	TRUE
O=C(O[C@H]1CN[C@H](C#Cc2cc3ncnc(Nc4ccc(Sc5ccccn5)cc4)c3s2)C1)N1CCOCC1	FALSE
O=C(O[C@H]1CN[C@H](C#Cc2cc3ncnc(Nc4ccc(Cc5ccccc5)cc4)c3s2)C1)N1CCOCC1	TRUE
O=C(O[C@H]1CN[C@H](C#Cc2cc3ncnc(Nc4ccc5c(cnn5S(=O)(=O)c5cccc(F)c5)c4)c3s2)C1)N1CCOCC1	TRUE

====

molecular target: Epidermal growth factor receptor (Homo sapiens, UniProt P00533); experiment: Inhibition of EGFR by SPA assay
Sequence (P00533 whole entry): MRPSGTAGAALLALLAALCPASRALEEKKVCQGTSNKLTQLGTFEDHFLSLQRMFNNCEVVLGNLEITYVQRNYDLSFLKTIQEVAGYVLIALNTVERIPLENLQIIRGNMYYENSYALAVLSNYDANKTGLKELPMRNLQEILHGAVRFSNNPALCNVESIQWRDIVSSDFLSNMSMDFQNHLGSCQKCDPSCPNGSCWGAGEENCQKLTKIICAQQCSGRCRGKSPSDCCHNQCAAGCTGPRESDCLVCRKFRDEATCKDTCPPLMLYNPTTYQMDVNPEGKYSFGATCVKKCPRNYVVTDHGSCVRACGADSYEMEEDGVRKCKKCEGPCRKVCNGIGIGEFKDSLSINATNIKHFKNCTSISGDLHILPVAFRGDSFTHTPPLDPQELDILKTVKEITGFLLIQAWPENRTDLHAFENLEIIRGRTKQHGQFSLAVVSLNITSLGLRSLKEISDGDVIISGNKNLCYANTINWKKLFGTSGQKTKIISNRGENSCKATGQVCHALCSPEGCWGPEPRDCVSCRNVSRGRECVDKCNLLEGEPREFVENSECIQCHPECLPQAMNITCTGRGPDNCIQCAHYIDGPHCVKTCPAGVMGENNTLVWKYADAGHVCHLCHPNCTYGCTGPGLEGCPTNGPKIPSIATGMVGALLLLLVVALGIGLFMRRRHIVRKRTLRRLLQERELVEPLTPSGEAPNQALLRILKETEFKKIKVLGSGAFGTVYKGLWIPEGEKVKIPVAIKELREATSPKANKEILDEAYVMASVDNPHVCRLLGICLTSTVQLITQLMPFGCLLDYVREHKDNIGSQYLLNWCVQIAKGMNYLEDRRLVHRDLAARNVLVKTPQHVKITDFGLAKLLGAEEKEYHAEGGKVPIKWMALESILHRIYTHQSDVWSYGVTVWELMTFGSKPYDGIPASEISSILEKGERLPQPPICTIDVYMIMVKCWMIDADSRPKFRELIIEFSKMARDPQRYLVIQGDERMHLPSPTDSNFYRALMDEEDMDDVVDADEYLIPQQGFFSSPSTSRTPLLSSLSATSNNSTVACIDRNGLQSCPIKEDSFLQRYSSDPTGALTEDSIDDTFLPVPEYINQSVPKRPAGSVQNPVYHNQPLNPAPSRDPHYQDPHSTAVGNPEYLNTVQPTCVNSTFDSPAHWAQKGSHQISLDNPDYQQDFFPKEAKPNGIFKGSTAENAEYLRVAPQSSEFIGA
pIC50: −log10 of the molar value.
Measured parameter: pIC50

Smi	Measured parameter	Readout number
O=C(O[C@H]1CN[C@H](C#Cc2cc3ncnc(Nc4ccc5c(ccn5S(=O)(=O)c5ccsc5)c4)c3s2)C1)N1CCOCC1	pIC50	6.82
